system: SW-620 colon; assay: NCI-60 one-dose screen, 48 h (100 = growth as untreated, 0 = no growth, -100 = all killed); settings: 10 µM unless noted
The panel holds about 83,000 compounds, 20% with a hit somewhere; the sample as a whole holds those more often.
readout-kind: growth (%)
One number for each entry, in %.

Completed entries (count: 5):
molecule: O=C(O)C(c1ccccc1)N1C(=O)CSC1=S (stereo not drawn)
test-system: SW-620 colon
growth / %: 103
--
molecule: COc1c(B(O)O)cc(F)cc1-c1nc2ccc3[nH]ncc3c2c2c1CCCC2
test-system: SW-620 colon
growth / %: 5.71
--
molecule: CC1CN(C2CCCCC2)C(=S)N(c2ccccc2)C1=O (stereo not drawn)
test-system: SW-620 colon
growth / %: 103
--
molecule: CCOC(=O)c1cn2ncnc(Oc3ccc(NC(=O)NCCN(CC)CC)c(Cl)c3)c2c1C
test-system: SW-620 colon
growth / %: 28.7
--
molecule: COc1cc2cc(Oc3ccc(NC(=O)Nc4ccc(Cl)c(C(F)(F)F)c4)cc3)c(C)nc2cc1OCCN1CCOCC1
test-system: SW-620 colon
growth / %: 15.1

State the recorded growth for every item in the following list.
1. CN(C(=O)NCc1cccc(F)c1Cl)[C@H](COC(=O)Nc1cc2ccccc2cn1)CC(O)CO (stereo partly drawn)
2. CCOC(=O)CC1C(COC(=O)NC)OC(n2cnc3c(NC(=O)Nc4ccccc4)ncnc32)C1O[Si](C)(C)C(C)(C)C (stereo not drawn)
3. Cc1cccc2c(=O)c3c(sc12)c(NCc1ccccc1)nc1ccccc13

A)
92.2
72.2
95.5

---

test system: SNB-19 CNS; assay: NCI-60 one-dose screen, 48 h (100 = growth as untreated, 0 = no growth, -100 = all killed); conditions: 10 µM unless noted
This is part of a sample that, as a whole, favours compounds with a hit. Of some 83,000 tested, about 20% had one in any assay.
# if value of growth reaches 80%, tag Criterion met; if it stays below, tag Criterion not met

Worked cases, answers included:
compound: CS(=O)(=O)N(c1cc(-c2ccc3ncnc(Nc4ccc(F)c(Cl)c4)c3c2)cnc1Cl)S(C)(=O)=O
cat: Criterion not met
//
compound: COc1cc(/C=N/NC(=O)c2ccc(C)nc2)cc(OC)c1OC
cat: Criterion met
//
compound: COC(=O)C(Cc1ccccc1)NC(=O)NC(=O)NC(=O)CI (stereo not drawn)
cat: Criterion met
//
compound: Cc1cc(N2CCCC2)nc(N(CCCNc2ccnc3cc(Cl)ccc23)Cc2ccccn2)n1
cat: Criterion not met
//
compound: N#CC1=C(N)Oc2c(sc3c(Br)cccc23)C1c1ccc([N+](=O)[O-])cc1 (stereo not drawn)
cat: Criterion not met
//
compound: COc1ccc(-c2nn(C(=O)c3cc(OC)c(OC)c(OC)c3)c3cc(N)ccc23)cc1
cat: Criterion not met

Turning to the following compound.
Q) Given C=CCNc1ccc2c3c(cccc13)C(=O)N(N1C(=O)c3cccc4cccc(c34)C1=O)C2=O , state whether its growth is at least 80%.
A) Criterion met

---

test system: TK-10 renal; assay: NCI-60 one-dose screen, 48 h (100 = growth as untreated, 0 = no growth, -100 = all killed); settings: 10 µM unless noted
About 83,000 compounds went through this panel and 20% of them were active in at least one assay; those are over-represented in the sample as a whole.
readout-kind: growth (%)
One number for each entry, in %.

State the recorded growth for every item in the following list.
1. COc1cccc2c(=O)c3c(sc12)c(NCCCN)nc1ccccc13
2. c1ccc(OCc2nnc(-c3ccc(Oc4ccccc4)cc3)o2)cc1
3. COc1cc(C(=O)/C=C/c2ccc(OCCCCCC[P+](c3ccccc3)(c3ccccc3)c3ccccc3)cc2)cc(OC)c1OC
4. CN1C(=O)CNC(=O)[C@H](NC(=O)c2nc3ccccc3cc2O)CSSC[C@H]1C(=O)NCCCc1nc2ccccc2cc1O
5. FC(F)(F)c1cc(Nc2ccc3c(OCCCN4CCOCC4)cccc3n2)ccc1Cl
6. CNCCCNc1nc2ccccc2c2c(=O)c3cc(F)ccc3sc12
7. COc1cc(C(=O)c2cc(C)c3[nH]c4ccc(O)cc4c3c2C)cc(OC)c1OC
8. CCCCOc1nc2ccc(OC)cc2cc1-c1cc(-c2ccc(Cl)cc2)nc(-c2ccc(Cl)cc2)c1

A)
[65.6, 103, -72, 75, 76.6, 43.3, 93.3, 104]

State the recorded growth for every item in the following list.
1. O=C(O)CCC(=O)Nc1nnc(-c2ccccc2)s1
2. CCOC(=O)c1sc2ncc(-c3ccc(C)cc3)n2c1C
3. CCCCNC(=O)Oc1ccc(/C(=C(\C)c2ccc(Cl)cc2)c2ccc(OCCN(CC)CC)cc2)cc1
4. COc1ccc2c(c1)c(-c1ccc(-c3cn(C)c4ccc(OC)cc34)o1)cn2C
5. O=c1[nH]c2c(ccc3cnccc32)c2c1CCC2
6. NCCCNc1nc2ccccc2c2c(=O)c3cccc(F)c3sc12
7. COc1ccc(-c2cc3c4c(nc5ccccc5c4c2)CC(c2cc(OC)c(OC)c(OC)c2)O3)cc1 (stereo not drawn)
8. COc1cc(OCc2cccc(-c3ccc(C(O)c4nccs4)cc3)c2C)cc(OC)c1CNCCNC(C)=O (stereo not drawn)

A)
1: 111; 2: 147; 3: 88.6; 4: 83.3; 5: -5.65; 6: 54.2; 7: 7.8; 8: 98.9

State the recorded growth for every item in the following list.
1. COC(=O)[C@H](C)NC(=O)NC(=O)NC(=O)CI
2. CC(C)(C)NC(=O)C(OC(=O)c1cccc(Cl)c1)c1ccc(Cl)cc1 (stereo not drawn)
3. CC(=O)OC[C@H]1OC(Sc2sc(C(=O)c3ccc(Br)cc3)c(N)c2-c2nc3ccccc3s2)[C@H](OC(C)=O)[C@@H](OC(C)=O)[C@H]1OC(C)=O (stereo partly drawn)
4. O=C1/C(=C/c2ccccc2[N+](=O)[O-])Oc2ccc(O)c(O)c21
5. O=C1NC(=O)C(c2ccccc2)(c2ccccc2)N1Cc1cn(-c2c3ccccc3nc3ccccc23)nn1
6. CSc1ccc2c(c1)c(CCN)c(C)n2Cc1ccc(Cl)c(Cl)c1
7. COc1ccc(-c2cnc3ccccc3n2)cc1

A)
1: 70.6; 2: 93.2; 3: 128; 4: 80.4; 5: 74.9; 6: -80.4; 7: 91.3
